Reference source: patent US20250042994A1

Please go through the items and note down their OD450.
# assayed.target: T1, Human CD19-his protein (human, UniProt P15391 20-291)
# T1 construct: bought protein; also called human CD19 protein; recombinant human CD19-His; not shown: His tag
# T1 sequence (looked up): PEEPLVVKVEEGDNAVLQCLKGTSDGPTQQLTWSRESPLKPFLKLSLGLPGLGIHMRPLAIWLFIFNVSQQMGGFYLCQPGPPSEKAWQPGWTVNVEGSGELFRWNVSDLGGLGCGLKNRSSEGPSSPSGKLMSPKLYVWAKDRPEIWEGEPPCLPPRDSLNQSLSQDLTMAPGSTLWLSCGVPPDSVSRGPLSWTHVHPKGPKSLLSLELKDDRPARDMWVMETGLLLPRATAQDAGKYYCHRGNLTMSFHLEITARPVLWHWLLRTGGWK
# method.description: ELISA, antibody at 1.00 nM
Note: the reply should be a number with no unit written.

Documented OD450 of F3.121.4 (antibody, human IgG1, V domains shown, human-murine chimeric antibody, human IgG1; also called chimeric antibody F3.121.4) VH: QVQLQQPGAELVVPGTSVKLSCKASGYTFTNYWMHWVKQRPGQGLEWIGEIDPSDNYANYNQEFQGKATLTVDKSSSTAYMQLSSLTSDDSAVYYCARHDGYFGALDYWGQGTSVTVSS VL: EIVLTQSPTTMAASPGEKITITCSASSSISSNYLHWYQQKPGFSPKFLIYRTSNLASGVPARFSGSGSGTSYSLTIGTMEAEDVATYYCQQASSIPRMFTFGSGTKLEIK : 0.88

Documented OD450 of F3.113.16 (antibody, human IgG1, V domains shown, human-murine chimeric antibody, human IgG1) VH: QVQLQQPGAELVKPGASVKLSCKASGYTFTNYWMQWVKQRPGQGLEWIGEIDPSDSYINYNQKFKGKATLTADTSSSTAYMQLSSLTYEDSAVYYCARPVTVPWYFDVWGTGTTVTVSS VL: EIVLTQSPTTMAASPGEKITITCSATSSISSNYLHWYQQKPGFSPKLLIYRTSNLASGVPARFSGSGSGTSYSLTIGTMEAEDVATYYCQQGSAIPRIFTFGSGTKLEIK : 0.26
